Molecular target: T1, Rat IL-23R_huFC (rat, UniProt F1LX96 39-369)
T1 sequence: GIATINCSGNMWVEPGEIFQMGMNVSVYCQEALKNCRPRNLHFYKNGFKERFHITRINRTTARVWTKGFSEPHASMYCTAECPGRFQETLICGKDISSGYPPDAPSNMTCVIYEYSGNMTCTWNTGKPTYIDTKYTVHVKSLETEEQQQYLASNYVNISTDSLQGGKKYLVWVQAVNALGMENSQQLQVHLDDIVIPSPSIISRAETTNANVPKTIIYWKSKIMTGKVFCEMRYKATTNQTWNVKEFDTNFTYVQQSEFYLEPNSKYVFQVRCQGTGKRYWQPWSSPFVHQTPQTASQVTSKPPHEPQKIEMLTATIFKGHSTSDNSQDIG
Assay: rat IL-23R competitive binding ELISA
[ ]: non-standard residue; d: D form. hLeu = CC(C)CC[C@H](N)C(=O)O
attribute_measured: IC50
Respond with the figure and its unit, in that order.

Record excerpt, results attached:
Ac-CQTWQCYW[hLeu]ENGG-NH2 (cysteine pairing not given here) [Ac-CQTWQCYW-[hLeu]-ENGG-NH2]; 140 nM
Ac-CQTWQCYW[hLeu]K(Ac)NG-NH2 (cysteine pairing not given here) [Ac-CQTWQCYW-[hLeu]-[Lys(Ac)]-NG-NH2]; 32 nM
Ac-FCQTWQCYW[hLeu]ENG-NH2 (cysteine pairing not given here) [Ac-FCQTWQCYW-[hLeu]-ENG-NH2]; 25 nM

Here's the next entry for you.
Task: Reported IC50 for CQTWQCYWXENG (Ac; 3-Pal; NH2) [Ac-CQTWQCYW-[3-Pal]-ENG-NH2] : what is it?
Output: 20 nM
